Measurement target: β-D-galactosidase (bovine liver) (Bos taurus)
Sequence (F1MNT6 1-469): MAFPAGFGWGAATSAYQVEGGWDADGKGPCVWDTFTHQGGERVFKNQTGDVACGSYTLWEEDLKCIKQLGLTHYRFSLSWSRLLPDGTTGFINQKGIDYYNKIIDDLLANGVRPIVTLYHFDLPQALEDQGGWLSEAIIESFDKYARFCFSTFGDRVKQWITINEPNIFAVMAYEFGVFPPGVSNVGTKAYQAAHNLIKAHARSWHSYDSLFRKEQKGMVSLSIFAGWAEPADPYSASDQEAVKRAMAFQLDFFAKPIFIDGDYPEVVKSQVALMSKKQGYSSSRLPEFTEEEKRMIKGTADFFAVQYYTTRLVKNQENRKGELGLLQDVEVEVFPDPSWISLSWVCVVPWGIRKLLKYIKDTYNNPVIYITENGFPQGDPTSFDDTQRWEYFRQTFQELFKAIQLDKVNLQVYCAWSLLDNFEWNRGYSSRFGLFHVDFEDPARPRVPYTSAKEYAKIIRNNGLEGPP
Experimental details: Glycosidase inhibition (Table 2 panel)
Format: biochemical
Experimental parameters: at 100 μM
Reported inhibition at 100 µM values follow for various molecules
Measured parameter: inhibition at 100 µM (%)

- Molecule: "CC1(C)O[C@H]2O[C@H]3[C@@H]([C@H]2O1)N(Cc1ccccc1B(O)O)C[C@H]3O"
  Measurement target: "β-D-galactosidase (bovine liver) (Bos taurus)"
  Number: 6.1
- Molecule: "CC1(C)O[C@H]2O[C@H]3[C@@H]([C@H]2O1)N(Cc1cccc(B2OC(C)(C)C(C)(C)O2)c1)C[C@H]3O"
  Measurement target: "β-D-galactosidase (bovine liver) (Bos taurus)"
  Number: 2.2
- Molecule: "CC1(C)O[C@H]2O[C@H]3[C@@H]([C@H]2O1)N(Cc1cccc(O)c1)C[C@H]3O"
  Measurement target: "β-D-galactosidase (bovine liver) (Bos taurus)"
  Number: 15.5
- Molecule: "N[C@@H](Cc1ccc(B(O)O)cc1)C(=O)O [BPA, 4-borono-L-phenylalanine, reference compound]"
  Measurement target: "β-D-galactosidase (bovine liver) (Bos taurus)"
  Number: 10.9
- Molecule: "OC[C@H](O)[C@@H]1[C@H](O)[C@H](O)CN1Cc1cccc(B(O)O)c1"
  Measurement target: "β-D-galactosidase (bovine liver) (Bos taurus)"
  Number: 24.6
- Molecule: "CC1(C)O[C@H]2O[C@H]3[C@@H]([C@H]2O1)N(Cc1cccc(B(O)O)c1)C[C@H]3O"
  Measurement target: "β-D-galactosidase (bovine liver) (Bos taurus)"
  Number: 0
- Molecule: "OC[C@H](O)[C@@H]1[C@H](O)[C@H](O)CN1Cc1ccccc1B(O)O"
  Measurement target: "β-D-galactosidase (bovine liver) (Bos taurus)"
  Number: 3.3

====

Measurement target: α-D-glucosidase (yeast) (Saccharomyces cerevisiae)
Construct: purchased Sigma-Aldrich
Experimental details: Glycosidase inhibition (Table 2 panel)
Type: biochemical
Experimental parameters: read-out: inhibition % α-D-Glucosidase Yeast
Reported inhibition at 1000 µM values follow for various compounds

- Compound: "OB(O)c1ccccc1CN1C[C@@H](O)[C@H]2OC(O)[C@H](O)[C@H]21 (some centres unmarked)"
  inhibition at 1000 µM: "1%"
- Compound: "CC1(C)O[C@H]2O[C@H]3[C@@H]([C@H]2O1)N(Cc1cccc(B2OC(C)(C)C(C)(C)O2)c1)C[C@H]3O"
  inhibition at 1000 µM: "0%"
- Compound: "CC1(C)O[C@H]2O[C@H]3[C@@H]([C@H]2O1)N(Cc1ccccc1B1OC(C)(C)C(C)(C)O1)C[C@H]3O"
  inhibition at 1000 µM: "0%"
- Compound: "OB(O)c1cccc(CN2C[C@@H](O)[C@H]3OC(O)[C@H](O)[C@H]32)c1 (some centres unmarked)"
  inhibition at 1000 µM: "37%"
- Compound: "OC[C@H](O)[C@@H]1[C@H](O)[C@H](O)CN1Cc1cccc(B(O)O)c1"
  inhibition at 1000 µM: "4.9%"

====

Test system: β-D-mannosidase (snail)
Experimental details: Glycosidase inhibition (Table 2 panel)
Type: biochemical
Experimental parameters: at 1000 μM
Measured parameter: inhibition % β-D-Mannosidase Snail

- Compound: "OB(O)c1cccc(CN2C[C@@H](O)[C@H]3OC(O)[C@H](O)[C@H]32)c1 (stereo partly drawn) [meta 3]"
  Result: "^aNI ^b(0%)"
- Compound: "OB(O)c1ccccc1CN1C[C@@H](O)[C@H]2OC(O)[C@H](O)[C@H]21 (stereo partly drawn) [ortho 3]"
  Result: "^aNI ^b(0%)"
- Compound: "OC[C@H](O)[C@@H]1[C@H](O)[C@H](O)CN1Cc1cccc(B(O)O)c1 [meta 4]"
  Result: "^aNI ^b(0%)"

====

System: amyloglucosidase (A. niger)
Construct: purchased Sigma-Aldrich
Experimental details: Glycosidase inhibition (Table 2 panel)
Type: biochemical
Experimental parameters: at 100 μM

- Molecule: "N[C@@H](Cc1ccc(B(O)O)cc1)C(=O)O [BPA, 4-borono-L-phenylalanine, reference compound]"
  Measurement target: "amyloglucosidase (A. niger)"
  inhibition % Amyloglucosidase A. niger: "^cNI ^d(0%)"
- Molecule: "CC1(C)O[C@H]2O[C@H]3[C@@H]([C@H]2O1)N(Cc1cccc(B(O)O)c1)C[C@H]3O [meta 5]"
  Measurement target: "amyloglucosidase (A. niger)"
  inhibition % Amyloglucosidase A. niger: "^cNI ^d(0%)"

====

Tested on: α-D-galactosidase (coffee beans)
Construct: purchased Sigma-Aldrich; host or cells: coffee beans
Experimental details: Glycosidase inhibition (Table 2 panel)
Format: biochemical
Experimental parameters: at 1000 μM
Measured parameter: inhibition % α-D-Galactosidase Coffee Beans

- Molecule: "OB(O)c1ccccc1CN1C[C@@H](O)[C@H]2OC(O)[C@H](O)[C@H]21 (stereo partly drawn)"
  Result: "^aNI ^b(0%)"
- Molecule: "CC1(C)O[C@H]2O[C@H]3[C@@H]([C@H]2O1)N(Cc1cccc(B2OC(C)(C)C(C)(C)O2)c1)C[C@H]3O"
  Result: "^aNI ^b(0%)"

====

Measurement target: UniProtKB Q653V7
Sequence (Q653V7 34-885): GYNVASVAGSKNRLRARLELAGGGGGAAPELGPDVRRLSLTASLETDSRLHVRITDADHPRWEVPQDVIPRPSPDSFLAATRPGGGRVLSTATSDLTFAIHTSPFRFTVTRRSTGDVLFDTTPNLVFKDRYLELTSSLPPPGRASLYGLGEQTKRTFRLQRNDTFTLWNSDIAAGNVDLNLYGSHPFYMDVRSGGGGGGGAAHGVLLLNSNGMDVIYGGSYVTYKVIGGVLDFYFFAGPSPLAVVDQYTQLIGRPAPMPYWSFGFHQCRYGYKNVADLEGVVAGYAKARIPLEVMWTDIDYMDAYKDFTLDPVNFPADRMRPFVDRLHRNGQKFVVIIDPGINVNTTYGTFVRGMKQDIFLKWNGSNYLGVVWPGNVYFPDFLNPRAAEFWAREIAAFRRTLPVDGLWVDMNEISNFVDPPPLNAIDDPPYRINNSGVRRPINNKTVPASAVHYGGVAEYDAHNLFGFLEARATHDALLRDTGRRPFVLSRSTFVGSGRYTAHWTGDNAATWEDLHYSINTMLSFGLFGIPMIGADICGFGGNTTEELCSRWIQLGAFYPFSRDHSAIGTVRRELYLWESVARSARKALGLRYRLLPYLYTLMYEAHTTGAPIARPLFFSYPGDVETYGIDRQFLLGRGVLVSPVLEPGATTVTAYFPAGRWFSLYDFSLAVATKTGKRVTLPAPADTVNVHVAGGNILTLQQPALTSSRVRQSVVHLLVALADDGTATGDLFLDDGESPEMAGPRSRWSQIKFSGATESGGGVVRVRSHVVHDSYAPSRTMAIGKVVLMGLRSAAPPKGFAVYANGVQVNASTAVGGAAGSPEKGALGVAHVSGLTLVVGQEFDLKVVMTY
Experimental details: Glycosidase inhibition (Table 2 panel)
Format: biochemical
Experimental parameters: at 1000 μM

- Compound: "CC1(C)O[C@H]2O[C@H]3[C@@H]([C@H]2O1)N(Cc1ccccc1B1OC(C)(C)C(C)(C)O1)C[C@H]3O"
  Measurement target: "UniProtKB Q653V7"
  inhibition at 1000 µM, %: 0
- Compound: "OB(O)c1ccccc1CN1C[C@@H](O)[C@H]2OC(O)[C@H](O)[C@H]21 (stereo partly shown)"
  Measurement target: "UniProtKB Q653V7"
  inhibition at 1000 µM, %: 0
- Compound: "OB(O)c1cccc(CN2C[C@@H](O)[C@H]3OC(O)[C@H](O)[C@H]32)c1 (stereo partly shown)"
  Measurement target: "UniProtKB Q653V7"
  inhibition at 1000 µM, %: 5.9
- Compound: "CC1(C)O[C@H]2O[C@H]3[C@@H]([C@H]2O1)N(Cc1cccc(B2OC(C)(C)C(C)(C)O2)c1)C[C@H]3O"
  Measurement target: "UniProtKB Q653V7"
  inhibition at 1000 µM, %: 2.9

====

Tested on: β-D-galactosidase (E. coli)
Experimental details: Glycosidase inhibition (Table 2 panel)
Assay type: biochemical
Experimental parameters: at 100 μM

- Smiles string: "CC1(C)O[C@H]2O[C@H]3[C@@H]([C@H]2O1)N(Cc1cccc(B2OC(C)(C)C(C)(C)O2)c1)C[C@H]3O"
  Measurement target: "β-D-galactosidase (E. coli)"
  inhibition % β-D-Galactosidase E. coli: "^cNI ^d(0%)"
- Smiles string: "CC1(C)O[C@H]2O[C@H]3[C@@H]([C@H]2O1)N(Cc1ccccc1B(O)O)C[C@H]3O"
  Measurement target: "β-D-galactosidase (E. coli)"
  inhibition % β-D-Galactosidase E. coli: "^cNI ^d(0%)"

====

Measurement target: α-D-glucosidase (yeast) (Saccharomyces cerevisiae, UniProt P53341)
Construct: purchased Sigma-Aldrich
Sequence (P53341 whole entry): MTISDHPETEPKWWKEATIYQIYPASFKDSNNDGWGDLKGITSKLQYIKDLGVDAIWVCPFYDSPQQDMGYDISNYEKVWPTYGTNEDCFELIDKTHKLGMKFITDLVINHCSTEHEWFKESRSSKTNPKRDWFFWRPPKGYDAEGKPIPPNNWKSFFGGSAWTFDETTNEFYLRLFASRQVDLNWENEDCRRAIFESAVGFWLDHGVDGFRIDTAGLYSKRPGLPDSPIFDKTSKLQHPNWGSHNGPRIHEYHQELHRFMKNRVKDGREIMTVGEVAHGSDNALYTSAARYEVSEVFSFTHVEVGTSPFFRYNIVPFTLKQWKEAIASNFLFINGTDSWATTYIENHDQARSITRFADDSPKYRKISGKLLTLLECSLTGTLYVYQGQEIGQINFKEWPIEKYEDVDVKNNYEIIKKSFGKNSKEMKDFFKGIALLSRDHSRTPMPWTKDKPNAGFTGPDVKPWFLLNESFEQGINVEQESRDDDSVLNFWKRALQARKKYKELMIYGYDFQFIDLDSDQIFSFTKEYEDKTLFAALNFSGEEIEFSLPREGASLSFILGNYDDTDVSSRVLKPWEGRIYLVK
Experimental details: Glycosidase inhibition (Table 3 panel)
Assay type: biochemical
Experimental parameters: 1 mg/mL aqueous solution; run in water; read-out: Percentage inhibition α-D-Glucosidase Yeast
Measured parameter: inhibition at 1000 µg/mL (stock) (%)

- Molecule: "CC1(C)O[C@H]2O[C@H]3[C@@H]([C@H]2O1)N(Cc1ccccc1B(O)O)C[C@H]3O [ortho 5]"
  U: "%"
  Number: 8.7
- Molecule: "CC1(C)O[C@H]2O[C@H]3[C@@H]([C@H]2O1)N(Cc1cccc(B2OC(C)(C)C(C)(C)O2)c1)C[C@H]3O [meta 2]"
  U: "%"
  Number: 9.3
- Molecule: "OC[C@H](O)[C@@H]1[C@H](O)[C@H](O)CN1Cc1cccc(B(O)O)c1 [meta 4]"
  U: "%"
  Number: 23.5
- Molecule: "CC1(C)O[C@H]2O[C@H]3[C@@H]([C@H]2O1)N(Cc1ccccc1B1OC(C)(C)C(C)(C)O1)C[C@H]3O [ortho 2]"
  U: "%"
  Number: -2
- Molecule: "OB(O)c1cccc(CN2C[C@@H](O)[C@H]3OC(O)[C@H](O)[C@H]32)c1 (stereo partly drawn) [meta 3]"
  U: "%"
  Number: -16.7
- Molecule: "OB(O)c1ccccc1CN1C[C@@H](O)[C@H]2OC(O)[C@H](O)[C@H]21 (stereo partly drawn) [ortho 3]"
  U: "%"
  Number: 4.1
- Molecule: "OC[C@H](O)[C@@H]1[C@H](O)[C@H](O)CN1Cc1ccccc1B(O)O [ortho 4]"
  U: "%"
  Number: -6.7
- Molecule: "CC1(C)O[C@H]2O[C@H]3[C@@H]([C@H]2O1)N(Cc1cccc(B(O)O)c1)C[C@H]3O [meta 5]"
  U: "%"
  Number: 14.8
- Molecule: "CC1(C)O[C@H]2O[C@H]3[C@@H]([C@H]2O1)N(Cc1cccc(O)c1)C[C@H]3O [meta 6]"
  U: "%"
  Number: 6.6

Reference source for all entries: paper PMC12655172
